target: rTRPM8 (Rattus norvegicus); experiment: Whole-cell patch-clamp on HEK-rTRPM8 cells, menthol-evoked currents
Sequence (Q8R455 whole entry): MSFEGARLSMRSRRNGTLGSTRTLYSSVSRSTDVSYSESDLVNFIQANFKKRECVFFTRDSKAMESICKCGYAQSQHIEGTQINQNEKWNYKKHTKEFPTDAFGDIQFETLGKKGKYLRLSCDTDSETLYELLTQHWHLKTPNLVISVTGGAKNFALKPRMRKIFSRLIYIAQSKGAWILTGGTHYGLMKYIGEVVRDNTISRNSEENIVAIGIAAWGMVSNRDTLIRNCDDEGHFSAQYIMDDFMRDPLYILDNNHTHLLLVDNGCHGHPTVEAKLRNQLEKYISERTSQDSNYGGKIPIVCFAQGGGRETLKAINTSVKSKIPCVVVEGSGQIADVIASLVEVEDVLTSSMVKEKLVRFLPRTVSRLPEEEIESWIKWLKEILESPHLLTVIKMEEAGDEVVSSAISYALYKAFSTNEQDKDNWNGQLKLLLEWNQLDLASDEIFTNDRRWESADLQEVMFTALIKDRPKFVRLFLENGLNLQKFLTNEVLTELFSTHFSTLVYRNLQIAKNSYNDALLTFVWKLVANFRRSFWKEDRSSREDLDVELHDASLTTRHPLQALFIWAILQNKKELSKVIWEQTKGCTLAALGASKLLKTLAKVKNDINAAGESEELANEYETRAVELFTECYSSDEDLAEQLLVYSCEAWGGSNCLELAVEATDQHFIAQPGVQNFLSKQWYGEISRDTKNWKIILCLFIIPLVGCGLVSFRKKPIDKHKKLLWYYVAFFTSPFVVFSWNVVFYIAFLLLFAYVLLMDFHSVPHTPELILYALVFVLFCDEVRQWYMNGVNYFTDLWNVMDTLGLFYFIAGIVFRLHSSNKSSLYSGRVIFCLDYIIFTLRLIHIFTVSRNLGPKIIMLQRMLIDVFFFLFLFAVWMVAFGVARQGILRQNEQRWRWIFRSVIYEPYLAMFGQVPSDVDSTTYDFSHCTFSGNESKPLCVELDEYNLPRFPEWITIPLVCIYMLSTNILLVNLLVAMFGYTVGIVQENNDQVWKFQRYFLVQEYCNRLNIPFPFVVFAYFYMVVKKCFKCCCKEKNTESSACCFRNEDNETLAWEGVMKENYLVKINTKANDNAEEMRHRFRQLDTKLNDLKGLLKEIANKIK
readout.kind: IC50

So what's the measured IC50 for this one? CCOC(=O)C(C)Nc1ccccc1C(=O)NC(C)c1ccccc1 (stereo not shown) 1250 nM

* * *

Provide the reported Efficacy of each item.
molecular target: rat isoform of TRPM8 channels (Rattus norvegicus, UniProt Q8R455); construct: expressed in transfected cells; assay: Ca2+ fluorometric assay, block of menthol-evoked responses in HEK293 cells stably expressing rTRPM8; assay type: cell-based; details: percentage of inhibition of menthol evoked currents at the maximum concentration used (50 µM)
Sequence (Q8R455 whole entry, canonical isoform): as the sequence (Q8R455 whole entry) above
Field format: number, assumed %, no unit text.

So what's the measured Efficacy for this one? NCC1CCCN(CCc2cccc(F)c2)C1 (centres unmarked) 85

So what's the measured Efficacy for this one? Cc1cccc(COc2ccccc2C(=O)N(CCCN)Cc2cccs2)c1 [AMTB, reference compound] 100

So what's the measured Efficacy for this one? COC(=O)C1=C(Nc2ccccc2F)SC(=Cc2ccccc2OCC#CC(C)(O)c2ccccn2)C1=O (centres unmarked) 90

So what's the measured Efficacy for this one? CCOC(=O)C(C)Nc1ccccc1C(=O)NC(C)c1ccccc1 (centres unmarked) 100

So what's the measured Efficacy for this one? `Cc1nn(C)c(Oc2ccc(Cl)cc2)c1-c1noc(C)c1C(=O)Nc1ccc(F)cc1` 95
